molecular target: recombinant wildtype and mutated PPO (Amaranthus PPO2: PPX2L_WC SEQ ID NO 2, PPX2L_AC SEQ ID NO 4, dG210 SEQ ID NO 6 & 8) (Amaranthus tuberculatus, UniProt Q0NZW9); assay: biochemical

{"molecule": "C#CCN1C(=O)C(F)(F)Oc2cc(F)c(N3C(=O)C4=C(CCCC4)C3=O)cc21", "IC50, nM": 0.146}
{"molecule": "COC(=O)C(OC)Oc1ccccc1Oc1cc(-n2c(=O)cc(C(F)(F)F)n(C)c2=O)c(F)cc1Cl (stereo not drawn)", "IC50, nM": 0.411}
{"molecule": "C#CCN1C(=O)C(F)(F)Oc2cc(F)c(-n3c(=O)cc(C(F)(F)F)n(C)c3=O)cc21", "IC50, nM": 0.315}

---

The compounds listed here are annotated with their IC50.
target: recombinant wildtype and mutated PPO (Amaranthus PPO2: PPX2L_WC SEQ ID NO 2, PPX2L_AC SEQ ID NO 4, dG210 SEQ ID NO 6 & 8) (Amaranthus tuberculatus, UniProt Q0NZW9, D133A/F420L/R128I); test: biochemical; details: IC50 (M)
observation-type: IC50

{"compound": "O=C(O)c1cc(Oc2ccc(C(F)(F)F)cc2Cl)ccc1[N+](=O)[O-] [ACIFLUORFEN]", "value-measured": "≥ 1e-05 M"}
{"compound": "COC(=O)C(OC)Oc1ccccc1Oc1cc(-n2c(=O)cc(C(F)(F)F)n(C)c2=O)c(F)cc1Cl (stereo not drawn)", "value-measured": "7.13e-08 M"}
{"compound": "COC(Oc1ccccc1Oc1cc(-n2c(=O)cc(C(F)(F)F)n(C)c2=O)c(F)cc1Cl)C(=O)OC1CCCCC1 (stereo not drawn)", "value-measured": "1.07e-07 M"}
{"compound": "CCOC(=O)C(C)OC(=O)c1cc(Oc2ccc(C(F)(F)F)cc2Cl)ccc1[N+](=O)[O-] (stereo not drawn) [Lactofen, lactofen]", "value-measured": "1.3e-07 M"}
{"compound": "C#CCN1C(=O)COc2cc(F)c(N3C(=O)C4=C(CCCC4)C3=O)cc21 [Flumioxazin, flumioxazin]", "value-measured": "≥ 1e-05 M"}
{"compound": "C=CCOC(=O)C(C)(C)OC(=O)c1cc(-n2c(=O)cc(C(F)(F)F)n(C)c2=O)ccc1Cl [BUTAFENACIL]", "value-measured": "8.02e-08 M"}
{"compound": "C#CCN1C(=O)C(F)(F)Oc2cc(F)c(-n3c(=O)cc(C(F)(F)F)n(C)c3=O)cc21", "value-measured": "2.69e-07 M"}
{"compound": "CS(=O)(=O)NC(=O)c1cc(Oc2ccc(C(F)(F)F)cc2Cl)ccc1[N+](=O)[O-] [Fomesafen, fomesafen]", "value-measured": "≥ 1e-05 M"}
{"compound": "CCOC(=O)C(Cl)Cc1cc(-n2nc(C)n(C(F)F)c2=O)c(F)cc1Cl (stereo not drawn) [CARFENTRAZONE-ETHYL]", "value-measured": "1.61e-07 M"}
{"compound": "CCOc1cc(Oc2ccc(C(F)(F)F)cc2Cl)ccc1[N+](=O)[O-] [OXIFLUORFEN]", "value-measured": "4.21e-06 M"}
{"compound": "CCOC(=O)COc1ncccc1Oc1cc(-n2c(=O)cc(C(F)(F)F)n(C)c2=O)c(F)cc1Cl [A.13]", "value-measured": "2.01e-07 M"}
{"compound": "C#CCN1C(=O)C(F)(F)Oc2cc(F)c(N3C(=O)C4=C(CCCC4)C3=O)cc21", "value-measured": "≥ 1e-05 M"}

---

The molecules listed here are annotated with their IC50.
molecular target: recombinant wildtype and mutated PPO (Amaranthus PPO2: PPX2L_WC SEQ ID NO 2, PPX2L_AC SEQ ID NO 4, dG210 SEQ ID NO 6 & 8) (Amaranthus tuberculatus, UniProt Q0NZW9, D133A/F420V/R128C); assay: biochemical; details: IC50 (M)

{"molecule": "CCOC(=O)COc1ncccc1Oc1cc(-n2c(=O)cc(C(F)(F)F)n(C)c2=O)c(F)cc1Cl [A.13]", "readout-units": "M", "IC50": "1.24e-07"}
{"molecule": "C#CCN1C(=O)COc2cc(F)c(N3C(=O)C4=C(CCCC4)C3=O)cc21 [Flumioxazin, flumioxazin]", "readout-units": "M", "IC50": "7.28e-06"}
{"molecule": "CCOC(=O)C(Cl)Cc1cc(-n2nc(C)n(C(F)F)c2=O)c(F)cc1Cl (stereo not shown) [CARFENTRAZONE-ETHYL]", "readout-units": "M", "IC50": "3.96e-07"}
{"molecule": "C#CCN1C(=O)C(F)(F)Oc2cc(F)c(N3C(=O)C4=C(CCCC4)C3=O)cc21", "readout-units": "M", "IC50": "3.7e-06"}

---

biological target: recombinant wildtype and mutated PPO (Amaranthus PPO2: PPX2L_WC SEQ ID NO 2, PPX2L_AC SEQ ID NO 4, dG210 SEQ ID NO 6 & 8) (Amaranthus tuberculatus, UniProt Q0NZW9, D133A/F420M/R128I); test: biochemical; details: IC50 (M)
observation-type: IC50 (M)

{"molecule": "C#CCN1C(=O)C(F)(F)Oc2cc(F)c(-n3c(=O)n(C)c(=S)n(C)c3=O)cc21", "readout-units": "M", "value-measured": "6.1e-08"}
{"molecule": "COC(=O)C(OC)Oc1ccccc1Oc1cc(-n2c(=O)cc(C(F)(F)F)n(C)c2=O)c(F)cc1Cl (stereo not drawn)", "readout-units": "M", "value-measured": "1.15e-08"}
{"molecule": "COC(Oc1ccccc1Oc1cc(-n2c(=O)cc(C(F)(F)F)n(C)c2=O)c(F)cc1Cl)C(=O)OC1CCCCC1 (stereo not drawn)", "readout-units": "M", "value-measured": "1.06e-08"}

---

The compounds listed here are annotated with their pIC50.
Target: recombinant wildtype and mutated PPO (Amaranthus PPO2: PPX2L_WC SEQ ID NO 2, PPX2L_AC SEQ ID NO 4, dG210 SEQ ID NO 6 & 8) (Amaranthus tuberculatus, UniProt Q0NZW9, R128A/F420L, form not given)
Sequence (Q0NZW9 1-534 R128A/F420L): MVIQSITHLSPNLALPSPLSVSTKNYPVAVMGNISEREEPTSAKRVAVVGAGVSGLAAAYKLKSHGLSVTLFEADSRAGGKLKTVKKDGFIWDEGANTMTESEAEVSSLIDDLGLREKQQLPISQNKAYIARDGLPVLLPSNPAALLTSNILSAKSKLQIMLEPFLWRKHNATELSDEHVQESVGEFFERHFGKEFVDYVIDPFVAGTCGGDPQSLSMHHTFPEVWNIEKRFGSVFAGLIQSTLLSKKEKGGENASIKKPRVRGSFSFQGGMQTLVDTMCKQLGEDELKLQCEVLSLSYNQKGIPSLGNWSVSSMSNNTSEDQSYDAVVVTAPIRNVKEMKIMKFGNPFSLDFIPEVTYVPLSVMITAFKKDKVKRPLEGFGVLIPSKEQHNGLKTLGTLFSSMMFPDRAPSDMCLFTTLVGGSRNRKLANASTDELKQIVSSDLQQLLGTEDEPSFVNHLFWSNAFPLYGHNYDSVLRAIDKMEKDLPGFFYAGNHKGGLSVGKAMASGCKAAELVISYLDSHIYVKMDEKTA
Assay: biochemical
pIC50: −log10 of the molar value.

{"compound": "COC(=O)C(OC)Oc1ccccc1Oc1cc(-n2c(=O)cc(C(F)(F)F)n(C)c2=O)c(F)cc1Cl (stereo not shown)", "pIC50": 7.33}
{"compound": "COC(Oc1ccccc1Oc1cc(-n2c(=O)cc(C(F)(F)F)n(C)c2=O)c(F)cc1Cl)C(=O)OC1CCCCC1 (stereo not shown)", "pIC50": 7.03}
{"compound": "C#CCN1C(=O)C(F)(F)Oc2cc(F)c(N3C(=O)C4=C(CCCC4)C3=O)cc21", "pIC50": 4.94}
{"compound": "C#CCN1C(=O)C(F)(F)Oc2cc(F)c(-n3c(=O)cc(C(F)(F)F)n(C)c3=O)cc21", "pIC50": 7.79}

---

biological target: recombinant wildtype and mutated PPO (Amaranthus PPO2: PPX2L_WC SEQ ID NO 2, PPX2L_AC SEQ ID NO 4, dG210 SEQ ID NO 6 & 8) (Amaranthus tuberculatus, UniProt Q0NZW9, D133A/F420M/R128H); assay: biochemical; conditions: IC50 (M)
observation-type: log10(IC50) (log10 of the value in M)

{"compound": "CS(=O)(=O)NC(=O)c1cc(Oc2ccc(C(F)(F)F)cc2Cl)ccc1[N+](=O)[O-] [Fomesafen, fomesafen]", "value-measured": -5.54}
{"compound": "C=CCOC(=O)C(C)(C)OC(=O)c1cc(-n2c(=O)cc(C(F)(F)F)n(C)c2=O)ccc1Cl [BUTAFENACIL]", "value-measured": -7.89}
{"compound": "CCOC(=O)COc1ncccc1Oc1cc(-n2c(=O)cc(C(F)(F)F)n(C)c2=O)c(F)cc1Cl [A.13]", "value-measured": -7.38}
{"compound": "COC(=O)C(OC)Oc1ccccc1Oc1cc(-n2c(=O)cc(C(F)(F)F)n(C)c2=O)c(F)cc1Cl (centres unmarked)", "value-measured": -7.75}
{"compound": "CCOC(=O)C(C)OC(=O)c1cc(Oc2ccc(C(F)(F)F)cc2Cl)ccc1[N+](=O)[O-] (centres unmarked) [Lactofen, lactofen]", "value-measured": -7.21}
{"compound": "C#CCN1C(=O)C(F)(F)Oc2cc(F)c(N3C(=O)C4=C(CCCC4)C3=O)cc21", "value-measured": -5.51}
{"compound": "CCOc1cc(Oc2ccc(C(F)(F)F)cc2Cl)ccc1[N+](=O)[O-] [OXIFLUORFEN]", "value-measured": -6.43}
